# experimental system: GLP (Homo sapiens, UniProt Q9H9B1)
# Construct: purchased BPS Bioscience (contract panel)
# assay comment: Epigenetics selectivity panel (BPS Bioscience)
# Type: biochemical
# test settings: chemiluminescence assay carried out at BPS
readout type: IC50 (nM)
All answers are understood in nM, so give the number only.

Summary for this compound, COc1cc2c(NC3CCN(C)CC3)cc(-c3ccc(C)o3)nc2cc1OCCCN1CCCC1 [CM-272] : IC50 is 2

---

# experimental system: human DNMT1 enzyme (Homo sapiens)
# Sequence (P26358 whole entry): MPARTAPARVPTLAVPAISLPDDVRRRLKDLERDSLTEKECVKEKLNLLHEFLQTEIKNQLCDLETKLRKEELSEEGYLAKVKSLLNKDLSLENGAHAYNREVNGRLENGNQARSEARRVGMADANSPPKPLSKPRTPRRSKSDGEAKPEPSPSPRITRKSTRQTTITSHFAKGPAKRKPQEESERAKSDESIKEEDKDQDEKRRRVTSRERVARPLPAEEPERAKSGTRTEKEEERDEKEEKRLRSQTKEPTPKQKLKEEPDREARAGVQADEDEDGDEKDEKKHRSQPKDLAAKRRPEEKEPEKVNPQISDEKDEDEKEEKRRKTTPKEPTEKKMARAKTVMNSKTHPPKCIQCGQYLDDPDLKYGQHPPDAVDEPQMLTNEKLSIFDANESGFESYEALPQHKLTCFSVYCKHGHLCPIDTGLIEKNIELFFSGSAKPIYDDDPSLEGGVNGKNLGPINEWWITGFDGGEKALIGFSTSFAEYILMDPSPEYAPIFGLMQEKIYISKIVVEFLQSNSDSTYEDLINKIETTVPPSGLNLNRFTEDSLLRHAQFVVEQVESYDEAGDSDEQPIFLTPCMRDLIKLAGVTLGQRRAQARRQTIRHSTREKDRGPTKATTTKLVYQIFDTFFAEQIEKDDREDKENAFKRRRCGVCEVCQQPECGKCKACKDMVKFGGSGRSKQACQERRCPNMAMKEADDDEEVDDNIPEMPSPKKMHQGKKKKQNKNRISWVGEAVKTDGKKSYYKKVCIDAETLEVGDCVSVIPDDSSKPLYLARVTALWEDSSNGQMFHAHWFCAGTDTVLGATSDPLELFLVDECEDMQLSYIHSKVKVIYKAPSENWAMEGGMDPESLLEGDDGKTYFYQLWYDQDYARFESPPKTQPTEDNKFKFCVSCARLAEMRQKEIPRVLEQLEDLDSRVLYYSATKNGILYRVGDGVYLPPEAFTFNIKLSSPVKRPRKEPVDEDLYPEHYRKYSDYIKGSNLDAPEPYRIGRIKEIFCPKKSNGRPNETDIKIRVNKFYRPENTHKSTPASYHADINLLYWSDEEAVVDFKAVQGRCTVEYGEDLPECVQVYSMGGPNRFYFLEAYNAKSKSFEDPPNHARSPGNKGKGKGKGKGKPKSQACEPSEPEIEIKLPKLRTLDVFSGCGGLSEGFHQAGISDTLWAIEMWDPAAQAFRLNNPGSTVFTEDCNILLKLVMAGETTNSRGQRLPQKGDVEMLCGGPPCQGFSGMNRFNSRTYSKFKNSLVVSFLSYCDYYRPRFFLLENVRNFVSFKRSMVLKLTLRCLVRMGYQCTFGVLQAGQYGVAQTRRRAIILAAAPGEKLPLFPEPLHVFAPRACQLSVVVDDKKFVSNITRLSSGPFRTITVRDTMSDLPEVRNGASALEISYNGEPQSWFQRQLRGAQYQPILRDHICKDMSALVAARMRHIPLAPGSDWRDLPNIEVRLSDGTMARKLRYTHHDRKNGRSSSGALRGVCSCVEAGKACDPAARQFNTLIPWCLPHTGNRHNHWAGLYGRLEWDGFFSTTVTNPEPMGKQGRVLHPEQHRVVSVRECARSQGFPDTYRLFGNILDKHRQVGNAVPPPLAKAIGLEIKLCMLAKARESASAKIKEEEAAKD
readout type: IC50

Summary for this compound, COc1cc2nc(N3CCCN(C)CC3)nc(NC3CCN(Cc4ccccc4)CC3)c2cc1OC : IC50 is > 10 µM

---

# experimental system: hERG potassium channels (Homo sapiens, UniProt Q12809)
# Sequence (Q12809 whole entry): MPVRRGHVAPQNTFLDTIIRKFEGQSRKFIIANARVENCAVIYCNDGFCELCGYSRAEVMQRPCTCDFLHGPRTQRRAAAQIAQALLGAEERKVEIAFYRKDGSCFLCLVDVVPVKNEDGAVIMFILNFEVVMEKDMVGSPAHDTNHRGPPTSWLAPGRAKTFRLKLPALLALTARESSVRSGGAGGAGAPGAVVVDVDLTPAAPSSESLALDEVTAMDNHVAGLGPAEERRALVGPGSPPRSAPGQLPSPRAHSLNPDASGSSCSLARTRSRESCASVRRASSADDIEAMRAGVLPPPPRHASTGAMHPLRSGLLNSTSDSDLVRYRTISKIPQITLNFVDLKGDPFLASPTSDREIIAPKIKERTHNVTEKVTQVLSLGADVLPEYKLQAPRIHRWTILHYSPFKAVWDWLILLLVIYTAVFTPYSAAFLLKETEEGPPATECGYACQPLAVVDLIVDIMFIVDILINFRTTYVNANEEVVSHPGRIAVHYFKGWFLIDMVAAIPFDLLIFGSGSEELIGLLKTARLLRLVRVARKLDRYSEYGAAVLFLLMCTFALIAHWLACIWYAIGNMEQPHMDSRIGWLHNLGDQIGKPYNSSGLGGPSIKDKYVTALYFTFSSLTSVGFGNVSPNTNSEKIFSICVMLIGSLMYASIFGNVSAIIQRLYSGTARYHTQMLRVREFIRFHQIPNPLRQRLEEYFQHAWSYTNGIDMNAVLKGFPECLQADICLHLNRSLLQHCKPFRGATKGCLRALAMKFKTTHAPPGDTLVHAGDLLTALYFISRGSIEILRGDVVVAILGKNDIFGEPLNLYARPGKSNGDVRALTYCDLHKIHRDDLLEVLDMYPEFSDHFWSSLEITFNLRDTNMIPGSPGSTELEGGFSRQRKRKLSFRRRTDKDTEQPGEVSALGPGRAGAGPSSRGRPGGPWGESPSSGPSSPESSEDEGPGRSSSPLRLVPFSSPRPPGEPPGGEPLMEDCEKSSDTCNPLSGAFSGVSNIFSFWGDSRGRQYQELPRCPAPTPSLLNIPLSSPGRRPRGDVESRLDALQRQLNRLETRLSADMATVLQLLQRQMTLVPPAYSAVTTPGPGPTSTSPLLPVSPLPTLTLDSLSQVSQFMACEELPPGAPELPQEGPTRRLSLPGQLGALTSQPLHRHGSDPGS
readout type: IC50

Summary for this compound, COc1cc2c(NCC3CCN(C)CC3)cc(-c3ccc(C)o3)nc2cc1OCCCN1CCCC1 [CM-579] : IC50 is > 100 µM

---

# experimental system: PRMT6 (Homo sapiens)
# Sequence (Q96LA8 whole entry): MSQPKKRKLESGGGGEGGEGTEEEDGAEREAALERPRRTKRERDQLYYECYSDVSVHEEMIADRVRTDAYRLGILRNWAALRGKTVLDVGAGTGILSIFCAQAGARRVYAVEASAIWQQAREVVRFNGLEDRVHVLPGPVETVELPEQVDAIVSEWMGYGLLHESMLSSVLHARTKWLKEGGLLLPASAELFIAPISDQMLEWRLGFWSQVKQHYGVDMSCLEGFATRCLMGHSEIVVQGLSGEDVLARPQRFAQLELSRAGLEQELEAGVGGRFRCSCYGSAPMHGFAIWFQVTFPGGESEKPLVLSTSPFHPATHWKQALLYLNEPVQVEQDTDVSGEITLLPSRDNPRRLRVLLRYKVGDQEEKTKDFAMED
readout type: IC50 (µM)
All answers are understood in µM, so give the number only.

Summary for this molecule, COc1cc2c(NC3CCN(C)CC3)cc(-c3ccc(C)o3)nc2cc1OCCCN1CCCC1 : IC50 is 3

---

# assay comment: in vivo
# Parameters: species or system mice
# test settings: mouse, iv, 1 mg/kg
readout type: Cmax (nM)
All answers are understood in nM, so give the number only.

Summary for this compound, COc1cc2c(NCC3CCN(C)CC3)cc(-c3ccc(C)o3)nc2cc1OCCCN1CCCC1 : Cmax is 191

---

# experimental system: JAK3(JH1domain-catalytic) (Homo sapiens)
# Construct: JAK3(JH1domain-catalytic); purchased DiscoverRx (DiscoverX), KINOMEscan screening platform
# Sequence (P52333 822-1111 limits assumed): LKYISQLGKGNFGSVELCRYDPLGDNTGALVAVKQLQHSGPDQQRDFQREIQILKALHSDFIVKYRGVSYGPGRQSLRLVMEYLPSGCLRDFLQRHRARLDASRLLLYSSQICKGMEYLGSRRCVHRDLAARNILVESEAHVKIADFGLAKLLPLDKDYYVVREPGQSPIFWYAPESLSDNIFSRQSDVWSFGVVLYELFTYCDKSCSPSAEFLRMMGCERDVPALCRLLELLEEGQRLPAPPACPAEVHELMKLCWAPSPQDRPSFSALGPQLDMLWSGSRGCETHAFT
# assay comment: KINOMEscan kinase profiling
# Format: binding
# test settings: KINOMEscan
readout type: Kd (µM)
All answers are understood in µM, so give the number only.

Summary for this molecule, COc1cc2c(NC3CCN(C)CC3)cc(-c3ccc(C)o3)nc2cc1OCCCN1CCCC1 : Kd is 1.8

---

# assay comment: Plasma protein binding (equilibrium dialysis)
# Format: in vitro ADME
# test settings: CD-1, mouse, pH 7.4
Exercise: state measured fraction unbound for each of the compounds provided.
Returns: the value as a bare number; no unit string appended.

Summary for this compound, COc1cc2c(NC3CCN(C)CC3)cc(-c3ccc(C)o3)nc2cc1OCCCN1CCCC1 : fraction unbound is 0.25

Summary for this compound, COc1cc2c(NCC3CCN(C)CC3)cc(-c3ccc(C)o3)nc2cc1OCCCN1CCCC1 : fraction unbound is 0.046

---

readout type: pKd
In simple prose, pKd is minus the logarithm base ten of a concentration in moles per litre.

Readout pKd for COc1cc2c(NC3CCN(C)CC3)cc(-c3ccc(C)o3)nc2cc1OCCCN1CCCC1 [CM-272] , test system UniProt P04629, was 5.96

---

# assay comment: in vivo
# Parameters: species or system mice
# test settings: mouse, iv, […]
readout type: clearance (mL/min/kg)
All answers are understood in mL/min/kg, so give the number only.

Summary for this compound, COc1cc2c(NC3CCN(C)CC3)cc(-c3ccc(C)o3)nc2cc1OCCCN1CCCC1 : clearance is 15.2

---

Exercise: state measured pIC50 for each of the molecules provided.
In simple prose, pIC50 is minus the logarithm base ten of a concentration in moles per litre.

Readout pIC50 for COc1cc2c(NCC3CCN(C)CC3)cc(-c3ccc(C)o3)nc2cc1OCCCN1CCCC1 [CM-579] , test system DNMT3A (Homo sapiens), was 7.04

Readout pIC50 for COc1cc2c(NC3CCN(C)CC3)cc(-c3ccc(C)o3)nc2cc1OCCCN1CCCC1 [CM-272] , test system DNMT3A (Homo sapiens), was 7.07

---

# Test system: MV4-11
# assay comment: Cell proliferation assay (MTS)
# Format: cell-based
# test settings: Homo sapiens, MV4-11; AML, 48 h; read-out: GI50
Just a reminder that ties go to Condition not met: only GI50 strictly below 6 µM counts as Condition met.

Here's an entry: Nc1ncn([C@@H]2O[C@H](CO)[C@@H](O)[C@H]2O)c(=O)n1 . Is its GI50 below 6 µM?
Condition met

Here's an entry: COc1cc2c(NC3CCN(C)CC3)cc(-c3ccc(C)o3)nc2cc1OCCCN1CCCC1 . Is its GI50 below 6 µM?
Condition met

Here's an entry: COc1cc2c(NCC3CCN(C)CC3)cc(-c3ccc(C)o3)nc2cc1OCCCN1CCCC1 . Is its GI50 below 6 µM?
Condition met

Here's an entry: COc1cc2nc(N3CCCN(C)CC3)nc(NC3CCN(Cc4ccccc4)CC3)c2cc1OC . Is its GI50 below 6 µM?
Condition not met

Here's an entry: COc1cc2c(NC3CCN(C(C)C)CC3)nc(C3CCCCC3)nc2cc1OCCCN1CCCC1 . Is its GI50 below 6 µM?
Condition not met

---

readout type: pKd
In simple prose, pKd is minus the logarithm base ten of a concentration in moles per litre.

Readout pKd for COc1cc2c(NC3CCN(C)CC3)cc(-c3ccc(C)o3)nc2cc1OCCCN1CCCC1 [CM-272] , test system ALK (Homo sapiens, UniProt Q9UM73), was 6.09

---

# assay comment: in vivo
# Design: species or system mice
# test settings: mouse, iv, 1 mg/kg
readout type: half-life
Quote the value and follow it with the unit of measurement.

Summary for this compound, COc1cc2c(NCC3CCN(C)CC3)cc(-c3ccc(C)o3)nc2cc1OCCCN1CCCC1 : half-life is 6.26 h

---

# experimental system: GLP (Homo sapiens)
# Construct: purchased BPS Bioscience (contract panel)
# Sequence (Q9H9B1 1-1298): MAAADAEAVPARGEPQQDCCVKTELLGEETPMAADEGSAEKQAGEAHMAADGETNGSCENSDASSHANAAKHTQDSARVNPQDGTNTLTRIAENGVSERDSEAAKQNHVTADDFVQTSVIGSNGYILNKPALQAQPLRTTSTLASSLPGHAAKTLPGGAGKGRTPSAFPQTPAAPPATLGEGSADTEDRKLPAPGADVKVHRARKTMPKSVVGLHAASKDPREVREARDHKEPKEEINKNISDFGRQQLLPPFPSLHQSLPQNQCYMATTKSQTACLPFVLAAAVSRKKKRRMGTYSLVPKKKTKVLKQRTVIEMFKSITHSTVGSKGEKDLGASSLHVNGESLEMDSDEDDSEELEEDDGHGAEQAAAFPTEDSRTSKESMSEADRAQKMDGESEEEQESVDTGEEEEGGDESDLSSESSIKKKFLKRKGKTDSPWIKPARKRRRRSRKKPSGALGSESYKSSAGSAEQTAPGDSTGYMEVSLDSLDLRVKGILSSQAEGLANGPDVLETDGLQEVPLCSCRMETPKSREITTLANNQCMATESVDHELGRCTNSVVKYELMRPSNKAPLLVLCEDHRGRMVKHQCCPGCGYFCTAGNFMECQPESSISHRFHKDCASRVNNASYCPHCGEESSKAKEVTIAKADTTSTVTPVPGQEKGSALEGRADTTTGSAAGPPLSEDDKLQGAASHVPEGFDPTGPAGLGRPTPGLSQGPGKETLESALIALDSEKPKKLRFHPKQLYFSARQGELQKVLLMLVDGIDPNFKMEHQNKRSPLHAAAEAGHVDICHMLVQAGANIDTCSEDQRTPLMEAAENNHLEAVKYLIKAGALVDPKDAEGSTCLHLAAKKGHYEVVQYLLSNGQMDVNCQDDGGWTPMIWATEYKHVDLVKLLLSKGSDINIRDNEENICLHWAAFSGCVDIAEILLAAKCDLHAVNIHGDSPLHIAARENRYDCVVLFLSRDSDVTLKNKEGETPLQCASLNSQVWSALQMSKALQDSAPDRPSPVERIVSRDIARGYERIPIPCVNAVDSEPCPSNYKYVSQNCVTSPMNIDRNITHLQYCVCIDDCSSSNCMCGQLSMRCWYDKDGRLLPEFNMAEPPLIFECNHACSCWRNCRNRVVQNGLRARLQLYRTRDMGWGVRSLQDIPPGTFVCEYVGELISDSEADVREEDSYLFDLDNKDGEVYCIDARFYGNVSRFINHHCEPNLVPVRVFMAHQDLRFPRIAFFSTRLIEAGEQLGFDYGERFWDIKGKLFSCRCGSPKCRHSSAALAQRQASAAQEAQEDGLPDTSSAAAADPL
# assay comment: Radioligand binding assay (3H-SAM), Reaction Biology
# Format: biochemical
readout type: IC50 (nM)
All answers are understood in nM, so give the number only.

Summary for this compound, COc1cc2c(NC3CCN(C)CC3)cc(-c3ccc(C)o3)nc2cc1OCCCN1CCCC1 : IC50 is 7

Summary for this compound, COc1cc2c(NCC3CCN(C)CC3)cc(-c3ccc(C)o3)nc2cc1OCCCN1CCCC1 : IC50 is 67

---

# assay comment: Liver microsomal stability
# Format: in vitro ADME
# test settings: human, human liver microsomes; read-out: Liver Microsomal Stability. Estimation T1/2
readout type: half-life at 1 µM (h)
All answers are understood in h, so give the number only.

Summary for this compound, COc1cc2c(NCC3CCN(C)CC3)cc(-c3ccc(C)o3)nc2cc1OCCCN1CCCC1 [CM-579] : half-life at 1 µM is 1.48

Entry source: paper PMC5458547
